# method_description: Stability in liver microsome, monkey
# Assay type: in vitro ADME
# cond: liver microsomes; monkey liver microsome 0.1 mg/mL, compound 1 μM, NADPH 2 mM
Consider the following compounds; for each one, report its half-life at 1 μM.

CCOC(=O)C1=C(CN2CCO[C@H](CCC(=O)O)C2)NC(c2nccs2)=N[C@H]1c1ccc(F)cc1Cl: 26.8 min
COC(=O)C1=C(CN2CCO[C@H](CCC(=O)O)C2)NC(c2nccs2)=N[C@H]1c1ccc(Cl)cc1Cl: 56.4 min
COC(=O)C1=C(CN2CCO[C@H](CCC(=O)O)C2)NC(c2nccs2)=N[C@H]1c1ccc(F)cc1Cl: 132 min
CCOC(=O)C1=C(CN2CCO[C@H](CCC(=O)O)C2)NC(c2nccs2)=N[C@H]1c1ccc(Cl)cc1Cl: 16.6 min
COC(=O)C1=C(CN2CCO[C@H](CCC(=O)O)C2)NC(c2nccs2)=N[C@H]1c1ccc(F)cc1Br: 140 min

Recorded half-life at 1 μM for CCOC(=O)C1=C(CN2CCO[C@H](CCC(=O)O)C2)NC(c2nccs2)=N[C@H]1c1ccc(F)cc1Br , please?
18.9 min

* * *

# method_description: PK of test compounds in beagle
# Type: in vivo, beagle dog
# cond: dog, plasma, po, 2.5 mg/kg, po, 2.5 mg/kg value multiplied by 2, read-out: AUClast ×2 (calculated by dosage)
AUC(0-t) vs 50000 ng·h/mL: less than gives Condition met; not less than gives Condition not met.

The following compounds have reported results that may help.
CCOC(=O)C1=C(CN2CCO[C@H](CCC(=O)O)C2)NC(c2nccs2)=N[C@H]1c1ccc(Cl)cc1Cl: Condition met
COC(=O)C1=C(CN2CCO[C@H](CCC(=O)O)C2)NC(c2nccs2)=N[C@H]1c1ccc(F)cc1Br: Condition met
COC(=O)C1=C(CN2CCO[C@H](CCC(=O)O)C2)NC(c2nccs2)=N[C@H]1c1ccc(Cl)cc1Cl: Condition not met

Would you kindly look at the next entry?
Dear colleague, could you confirm whether AUC(0-t) of COC(=O)C1=C(CN2CCO[C@H](CCC(=O)O)C2)NC(c2nccs2)=N[C@H]1c1ccc(F)cc1Cl falls below 50000 ng·h/mL? Thanks.
Condition not met

* * *

# method_description: PK of test compounds in beagle
# Type: in vivo, beagle dog
# cond: dog, plasma, iv, 1 mg/kg, iv, 1 mg/kg, AUC in 0-24 hours, read-out: AUClast
Consider the following compounds; for each one, report its AUC(0-t).
Numbers only, in ng·h/mL.

Guide cases for AUC(0-t), answers given:
CCOC(=O)C1=C(CN2CCO[C@H](CCC(=O)O)C2)NC(c2nccs2)=N[C@H]1c1ccc(F)cc1Cl: 10600
CCOC(=O)C1=C(CN2CCO[C@H](CCC(=O)O)C2)NC(c2nccs2)=N[C@H]1c1ccc(Cl)cc1Cl: 7570

Please give AUC(0-t) for each item listed below.
1. COC(=O)C1=C(CN2CCO[C@H](CCC(=O)O)C2)NC(c2nccs2)=N[C@H]1c1ccc(F)cc1Cl
2. COC(=O)C1=C(CN2CCO[C@H](CCC(=O)O)C2)NC(c2nccs2)=N[C@H]1c1ccc(Cl)cc1Cl
3. COC(=O)C1=C(CN2CCO[C@H](CCC(=O)O)C2)NC(c2nccs2)=N[C@H]1c1ccc(F)cc1Br
4. CCOC(=O)C1=C(CN2CCO[C@H](CCC(=O)O)C2)NC(c2nccs2)=N[C@H]1c1ccc(F)cc1Br

[9400, 11200, 10500, 8270]
